# Tested on: H4IIe (AhR CALUX)
# test-context: against baseline cytotoxicity
measured-parameter: Toxic ratio (TR) TRAhR
Write no unit; give the number alone.

[
  {
    "compound": "Cc1cc(Cc2cc(C)c(O)c(C)c2)cc(C)c1O [TMBPF, Bis(3,5-dimethyl-4-hydroxyphenyl)methane]",
    "Toxic ratio (TR) TRAhR": 0.13
  },
  {
    "compound": "CC1(C)C(O)C(C)(C)C1O (racemic) [r-TMCD]",
    "Toxic ratio (TR) TRAhR": 0.12
  },
  {
    "compound": "CC(C)(c1ccc(O)c(-c2ccccc2)c1)c1ccc(O)c(-c2ccccc2)c1 [BPPH, 2,2-Bis(2-hydroxy-5-biphenylyl)propane]",
    "Toxic ratio (TR) TRAhR": 0.32
  }
]

Moving on to another compound below.
# input compound: CCC(C)(c1ccc(O)cc1)c1ccc(O)cc1 [BPB, 4,4'-(Butane-2,2-diyl)diphenol] ; wanted: its Toxic ratio (TR) TRAhR
0.31
